TEST_DESCRIPTION: Bioavailability in rat at 3 mg/kg, iv and 10 mg/kg, po
Type: ADME, organism-based
MEASUREMENT_PARAMETERS: in vivo
RECORDED_METRIC: bioavailability (%)

>>> numeric_value("CCOc1cc2ncc(C(N)=O)c(Nc3ccc(F)cc3F)c2cc1N1CCOCC1")
25
>>> numeric_value("CC(C)Oc1cc2ncc(C(N)=O)c(Nc3ccc(F)cc3F)c2cc1N1CCN(C)CC1")
40
>>> numeric_value("COCCOc1cc2ncc(C(N)=O)c(Nc3cccc(Cl)c3Cl)c2cc1N1CCN(C)CC1")
32

* * *

TEST_DESCRIPTION: Aqueous solubility of the compound
Type: physicochemical
MEASUREMENT_PARAMETERS: buffer
Please use the following solubility ranges when assigning a class: 0: < 70 µM; 1: ≥ 70 µM and < 200 µM; 2: ≥ 200 µM

>>> assigned_label("COc1cc2ncc(C(N)=O)c(Nc3ccc(Cl)cc3Cl)c2cc1N1CCN(C)CC1")
1
>>> assigned_label("CCOc1cc2ncc(C(N)=O)c(Nc3ccc(F)cc3F)c2cc1N1CCN(C2CC2)CC1")
1
>>> assigned_label("CCOc1cc2ncc(C(N)=O)c(Nc3cccc(Cl)c3Cl)c2cc1N1CCCN(C)CC1")
1
>>> assigned_label("COCCOc1cc2ncc(C(N)=O)c(Nc3ccc(F)cc3F)c2cc1N1CCN(C)CC1")
2
>>> assigned_label("CCOc1cc2ncc(C(N)=O)c(Nc3ccc(C)cc3F)c2cc1N1CCN(C)CC1")
0
>>> assigned_label("COc1cc2c(Nc3cccc(Cl)c3Cl)c(C(N)=O)cnc2cc1N1CCN(C)CC1")
2
>>> assigned_label("COc1cc2ncc(C(N)=O)c(Nc3cccc(Cl)c3Cl)c2cc1N1CCN(C)CC1")
2
>>> assigned_label("CN1CCN(c2ccc3ncc(C(N)=O)c(Nc4ccc(F)cc4F)c3c2)CC1")
2
>>> assigned_label("CC(C)Oc1cc2ncc(C(N)=O)c(Nc3ccc(F)cc3F)c2cc1N1CCN(C)CC1")
0
>>> assigned_label("COc1cc2c(Nc3ccc(F)cc3F)c(C(N)=O)cnc2cc1N1CCN(C)CC1")
2
>>> assigned_label("CCOc1cc2ncc(C(N)=O)c(Nc3cccc(Cl)c3Cl)c2cc1N1CCN(C)CC1")
0
>>> assigned_label("CCOc1cc2ncc(C(N)=O)c(Nc3ccc(F)cc3F)c2cc1N1CCCN(C)CC1")
2
>>> assigned_label("CCOc1cc2ncc(C(N)=O)c(Nc3ccc(F)cc3F)c2cc1N1CCOCC1")
0
